Data provenance is the kinase profiling compilation of Christmann-Franck et al. (2016).

- Target or test system: PAK3 (human) (UniProt O75914)
- Sequence (O75914 whole entry, looked up): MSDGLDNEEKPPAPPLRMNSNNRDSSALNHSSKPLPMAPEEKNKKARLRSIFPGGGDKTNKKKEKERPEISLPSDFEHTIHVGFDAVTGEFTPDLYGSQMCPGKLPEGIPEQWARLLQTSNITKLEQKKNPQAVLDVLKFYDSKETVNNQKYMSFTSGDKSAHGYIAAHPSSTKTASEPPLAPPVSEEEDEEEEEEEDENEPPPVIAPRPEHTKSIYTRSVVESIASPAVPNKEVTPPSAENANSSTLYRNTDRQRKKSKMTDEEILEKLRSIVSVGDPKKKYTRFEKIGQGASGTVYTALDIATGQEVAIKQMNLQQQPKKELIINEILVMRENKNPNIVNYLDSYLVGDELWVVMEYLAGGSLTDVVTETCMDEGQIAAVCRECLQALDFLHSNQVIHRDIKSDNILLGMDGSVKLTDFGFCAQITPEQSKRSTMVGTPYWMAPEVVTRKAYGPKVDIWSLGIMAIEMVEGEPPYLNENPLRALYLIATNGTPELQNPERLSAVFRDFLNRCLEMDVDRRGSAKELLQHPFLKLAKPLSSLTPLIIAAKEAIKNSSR
- Assay procedure: radiometric filter-binding kinase assay, Kinase HotSpot
- Details: compound 0.5 µM; ATP 10 µM
# Lookup of reported residual activity keyed by entry
Please answer in the form of a number followed by its unit of measurement.

# example entries with known answers
compound=CC(C)N(CCC(=O)c1ccc2ccccc2c1)Cc1ccccc1 target_or_test_system="PAK3 (human) (UniProt O75914)" endpoint_name="residual activity" observed_measurement=98.6%
compound=Nc1ncnc2[nH]nc(Nc3ccc(F)cc3)c12 target_or_test_system="PAK3 (human) (UniProt O75914)" endpoint_name="residual activity" observed_measurement=104%
compound=CCC(=O)Nc1ccc2ncnc(Nc3cccc(Br)c3)c2c1 target_or_test_system="PAK3 (human) (UniProt O75914)" endpoint_name="residual activity" observed_measurement=105%

Given CO[C@H]1CC2CC[C@@H](C)[C@@](O)(O2)C(=O)C(=O)N2CCCC[C@H]2C(=O)OC([C@H](C)C[C@@H]2CC[C@@H](O)[C@H](OC)C2)CC(=O)[C@H](C)/C=C(\C)[C@@H](O)[C@@H](OC)C(=O)[C@H](C)C[C@H](C)/C=C/C=C/C=C/1C (some centres undefined) , respond with its residual activity.
102%

State its residual activity: `Cc1ccc(NC2=CC(=O)c3sc(C)nc3C2=O)cc1`
97.5%

Give the measured residual activity for `O=C1NC(=O)/C(=C/c2ccc3c(c2)OC(F)(F)O3)S1`
93.1%

Return residual activity for the following compound: `Cc1ccc(Nc2nccc(N(C)c3ccc4c(C)n(C)nc4c3)n2)cc1S(N)(=O)=O`
90.6%

Consider the compound `COc1ccc(COc2ccc(Cc3cnc(N)nc3N)cc2OC)cc1` . State its measured residual activity.
102%

Look up and state reported residual activity for `O=c1cc(N2CCOCC2)oc2c1ccc1ccccc12`
102%
